# protocol-text: NCI Yeast Anticancer Drug Screen. Data for the rad50 strain (AID 155);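 also: 0% = growth of vehicle-only cultures of the same strain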
# assay-conditions: S. cerevisiae rad50 strain growth inhibition; at 50.0 µM
This is part of a sample that, as a whole, favours compounds with a hit. Of some 79,000 tested, about 15% had one in any assay. The source made the active and inactive calls. Rule as the data show it: active = growth inhibition above about 70%; inactive = the rest.
Possible outcomes: true (1) for active, false (0) for inactive

[[record]]
compound = "O=C(C#CP(=O)(O)c1ccccc1)c1ccccc1"
assigned_label = "false (0)"

[[record]]
compound = "CCOC(=O)c1ccc(Cl)cc1"
assigned_label = "false (0)"

[[record]]
compound = "CC(C)C[N+](=O)[O-]"
assigned_label = "false (0)"

[[record]]
compound = "COc1cc([N+](=O)[O-])c2ncccc2c1"
assigned_label = "false (0)"

[[record]]
compound = "OC(C1=NNC(C(O)c2ccccc2)=NN1)c1ccccc1 (stereo not drawn)"
assigned_label = "false (0)"

[[record]]
compound = "CCOC(=O)c1cnc2ccccc2c1N=[N+]=[N-]"
assigned_label = "false (0)"

[[record]]
compound = "N#Cc1cc(Cl)ccc1N=Cc1c(Cl)cccc1Cl"
assigned_label = "false (0)"

[[record]]
compound = "CN1CCCC(CO)C1 (stereo not drawn)"
assigned_label = "false (0)"

[[record]]
compound = "CCCCCCC(O)CC[C@H]1CCC[C@@H](C)N1 (stereo partly drawn)"
assigned_label = "false (0)"

[[record]]
compound = "O=C(Nc1cccc2ccccc12)Oc1ccc(Br)cc1Br"
assigned_label = "true (1)"

[[record]]
compound = "C1CCN(/N=N/c2nn[nH]n2)CC1"
assigned_label = "false (0)"

[[record]]
compound = "CCCCC(=O)/C=C/c1ccccc1"
assigned_label = "false (0)"

[[record]]
compound = "O=C1c2ccccc2C(=O)N1CC1CC(S(=O)(=O)c2ccccc2)=NO1 (stereo not drawn)"
assigned_label = "false (0)"


###

# protocol-text: NCI Yeast Anticancer Drug Screen. Data for the bub3 strain (AID 167)
# assay-conditions: S. cerevisiae bub3 mutant strain, at 50.0 µM, stronger effect = higher value
The panel holds about 79,000 compounds, 15% with a hit somewhere; the sample as a whole holds those more often. Where a SMILES comes first, the peptide text is derived from it. Bridges are numbered along the chain shown (N, C = ends).
measured-parameter: growth inhibition (%)

[[record]]
compound = "Cn1cc(C(=O)c2ccccc2)c2ccccc2c1=O"
value_observed = 31.9

[[record]]
compound = "COc1cc(Br)c(C=O)cc1OC"
value_observed = 2.95

[[record]]
compound = "CN(C)CCN1C(=O)c2c(c3cccn3c3c2cnn3-c2ccccc2)C1=O"
value_observed = 4.9

[[record]]
compound = "COc1cc2c3cc1Oc1c(O)c(OC)cc4c1C(Cc1ccc(O)c(c1)Oc1ccc(cc1)CC3N(C)CC2)N(C)CC4 (stereo unspecified)"
value_observed = -24.5

[[record]]
compound = "N#C/C(=C1/Sc2c(nc[nH]c2=O)N1c1ccccc1)c1nc2ccccc2[nH]1"
value_observed = -40

[[record]]
compound = "CN(C)N=Nc1ccc(Cl)cc1C(=O)O"
value_observed = 17.9

[[record]]
compound = "CCc1ccc2c(OC(C)=O)c3ccccc3c(OC(C)=O)c2c1"
value_observed = 46

[[record]]
compound = "O=C1CC(c2ccccc2)S(=O)(=O)c2ccccc2N1 (stereo unspecified)"
value_observed = 11.3

[[record]]
compound = "C=C(C(=O)O)C(=O)O"
value_observed = 2

[[record]]
compound = "Cc1cn(C2OC(CO[Si](C)(C)C(C)(C)C)C(N(C)O[Si](C)(C)C(C)(C)C)C2[Se]c2ccccc2)c(=O)[nH]c1=O (stereo unspecified)"
value_observed = -9.85

[[record]]
compound = "CCCCCC(=O)C(C)(c1nc2nnc(NC(=O)Nc3ccc(Cl)cc3)n2[nH]c1=O)c1nc2nnc(NC(=O)Nc3ccc(Cl)cc3)n2[nH]c1=O"
value_observed = -38.8

[[record]]
compound = "CC(=O)O/C1=C\\CCCCCCCCCC1"
value_observed = 13.5

[[record]]
compound = "O=C1CCCCC1N1CCCCC1 (stereo unspecified)"
value_observed = -1.3

[[record]]
compound = "COc1ccc(-c2cc(-c3ccccc3)c(-c3ccccc3)nn2)cc1CN1CCOCC1"
value_observed = -5.05

[[record]]
compound = "CC(NCCOc1ccccc1)c1ccccc1 (stereo unspecified)"
value_observed = -0.75

[[record]]
compound = "CCCCCCCCCCCCCCCCCCOc1c(Cl)c(Cl)c(Cl)c(Cl)c1Cl"
value_observed = -7.4

[[record]]
compound = "N#C/C(=C\\NC(=S)NCc1ccccc1)c1nc2ccccc2s1"
value_observed = 30.5

[[record]]
compound = "CC(C)(C)c1ccc(O)c(C(=O)O)c1"
value_observed = -35.1

[[record]]
compound = "COC(=O)C1CCC(=O)NCCCCC(NC(=O)C(N)CC(=O)O)C(=O)N1 (stereo not drawn) (H-Asp-Lys-Glu-OMe; lactam 2-3; configuration not given here)"
value_observed = 15.1

[[record]]
compound = "O=C(NNc1nc(N2CCOCC2)nc(N2CCOCC2)n1)c1ccccc1"
value_observed = -5.05

[[record]]
compound = "O=C(OCC(O)C(O)C(O)C(O)COC(=O)c1ccccc1)c1ccccc1 (stereo unspecified) (tested in a mixture with another compound)"
value_observed = 0.85

[[record]]
compound = "CCCCOC(=S)Nc1ccc(S(=O)(=O)c2ccc(NC(=S)OCCCC)cc2)cc1"
value_observed = -4.9

[[record]]
compound = "CCOC(=O)C1SC(=Nc2ccc(Cl)cc2Cl)N=C1C (stereo unspecified)"
value_observed = -2.85

[[record]]
compound = "CCO[Si](CCCN)(OCC)OCC"
value_observed = -22.1

[[record]]
compound = "COc1cc(C(=O)NOCc2cccc(C(F)(F)F)c2)cc(OC)c1OC"
value_observed = 2.5

[[record]]
compound = "C(=Nc1ccc2ccccc2c1)c1cccs1"
value_observed = 5.1

[[record]]
compound = "CC(=O)NCCN1CCN(C(C)=O)CC1"
value_observed = -13.8

[[record]]
compound = "Cc1cc(OCc2nnc3n2S(=O)(=O)c2ccccc2N3C)ccc1Cl"
value_observed = -30.4

[[record]]
compound = "O=C1OC(=O)c2ccc(SCC(O)CCl)c3cccc1c23 (stereo unspecified)"
value_observed = 98.9

[[record]]
compound = "O=C1C2C3CCC(C3)C2N1Cc1ccccc1 (stereo unspecified)"
value_observed = 13.6

[[record]]
compound = "NC(=O)c1ccccc1OCC(=O)O"
value_observed = -6.45

[[record]]
compound = "Cc1noc(NC2=CC(=O)C(=O)c3ccccc32)c1C"
value_observed = 28.6

[[record]]
compound = "NC(=O)c1cc([N+](=O)[O-])cnc1Sc1ncccn1"
value_observed = 29.9

[[record]]
compound = "CC(=O)[C@H]1[C@H](C)C[C@H]2[C@@H]3CCC4=CC(=O)CC[C@]4(C)[C@@]3(F)C(=O)C[C@@]21C"
value_observed = 6

[[record]]
compound = "CCOC(=O)c1nc2c(C)nc(N)nc2[nH]c1=O"
value_observed = -5.6

[[record]]
compound = "Clc1ccc(-c2nc3ccccc3cc2N2CCCCC2)cc1"
value_observed = -1.15

[[record]]
compound = "CN(C=O)C1CCC2C3CC=C4CC(OC=O)CCC4(C)C3CCC21C (stereo unspecified)"
value_observed = -2.9

[[record]]
compound = "COC(=O)c1cc(C)c(C(=O)O)c(C)c1"
value_observed = 3.9

[[record]]
compound = "COc1cc(N(CCC#N)CCC#N)ccc1/C(N=Nc1ccccc1)=N/NC(=O)c1cc(Br)ccc1O"
value_observed = 35.9

[[record]]
compound = "N#Cc1c(C#N)c(-c2ccco2)n(/N=C/c2ccco2)c1N"
value_observed = -25.8

[[record]]
compound = "COc1ccc(/C=C2\\NC(=O)NC2=O)cc1Br"
value_observed = 9.1

[[record]]
compound = "CC(=O)OCC1COC(C)(c2ccccc2)O1 (stereo unspecified)"
value_observed = 4.15

[[record]]
compound = "CC(=O)Nc1cccc(OCOc2ccc([N+](=O)[O-])cc2)c1"
value_observed = 22.6

[[record]]
compound = "Nc1ncnc2nc(I)[nH]c12"
value_observed = 26.7

[[record]]
compound = "CCSc1nc(C)cc(=O)[nH]1"
value_observed = 13.2

[[record]]
compound = "O=C(O)C1C(CCl)=C1CCl"
value_observed = 4.7

